Recorded Ratio Ki for the following compounds
- Species: Homo sapiens
- experiment-notes: Selectivity for human vasopressin V1a receptor over human oxytocin receptor

compound-structure-string: COc1ccc(S(=O)(=O)N(CC(=O)N/N=C2\C(=O)Nc3ccccc32)c2ccc(C)cc2)cc1
censoring-sign: =
Ratio Ki: 22
//
compound-structure-string: CN(C)CCOc1ccc(S(=O)(=O)N(CC(=O)N/N=C2\C(=O)Nc3ccccc32)c2ccc(Cl)cc2)cc1
censoring-sign: =
Ratio Ki: 84
//
compound-structure-string: COCCOCCOc1ccc(S(=O)(=O)N(CC(=O)N/N=C2\C(=O)Nc3ccccc32)c2ccc(Cl)cc2)cc1
censoring-sign: =
Ratio Ki: 176
//
compound-structure-string: CCCc1ccc(S(=O)(=O)N(CC(=O)N/N=C2\C(=O)Nc3ccccc32)c2ccc(Cl)cc2)cc1
censoring-sign: =
Ratio Ki: 60
//
compound-structure-string: CCOc1ccc(S(=O)(=O)N(CC(=O)N/N=C/c2ccccn2)c2ccc(Cl)cc2)cc1
censoring-sign: =
Ratio Ki: 0.67
//
compound-structure-string: Cc1ccc(N(CC(=O)/N=N/c2c(O)[nH]c3ccccc23)S(=O)(=O)c2ccc3ccccc3c2)cc1
censoring-sign: >
Ratio Ki: 42
//
compound-structure-string: O=C(CN(c1ccc(Cl)cc1)S(=O)(=O)c1cccs1)N/N=C1\C(=O)Nc2ccccc21
censoring-sign: =
Ratio Ki: 14
//
compound-structure-string: COC(=O)c1cccc2c1NC(=O)/C2=N\NC(=O)CN(c1ccc(Cl)cc1)S(=O)(=O)c1ccc(OCCCN(C)C)cc1
censoring-sign: =
Ratio Ki: 12
